Origin of values: ChEMBL document CHEMBL3045436

Test system: Tobacco mosaic virus
assay-remarks: Antiviral activity against Tobacco mosaic virus (TMV) in tobacco plant leaf assessed as inactivation effect at 100 ug/ml after 3 to 4 days
Assay type: functional
property-name: inhibition at 100 µg/mL (%)
Answer in %, number only, no unit symbol.

Use the examples below as a reference point.
Fill in the blank: the reported inhibition at 100 µg/mL of "CCOc1ccc2c3c(c4cc(OC)c(OC)cc4c2c1)C[C@@H]1CCCN1C3" is ____.
23

// repeat for "CNCC(=O)N[C@@H](CO)C(=O)N[C@H]1[C@H](O)[C@@H](O)[C@H](n2ccc(N)nc2=O)O[C@@H]1C(N)=O" and report
25

Follow-up entry: "COc1cc2c3c(c4ccc(O)cc4c2cc1OC)CN1CCC[C@@H]1C3"
33.5

Same lookup for "COc1cc2c3c(c4ccc(OCCO)cc4c2cc1OC)CN1CCC[C@@H]1C3" , please.
40.9

Try "CCOc1ccc2c3c(c4cc(OC)c(OC)cc4c2c1)C[C@H]1CCCN1C3" next.
28.5

How about this compound: "COc1ccc2c3c(c4cc(OC)c(OC)cc4c2c1)C[C@@H]1CCCN1C3"
26.7

Continuing:
Value lookup for inhibition at 100 µg/mL; key = "COc1cc2c3c(c4ccc(OCCO)cc4c2cc1OC)CN1CCC[C@H]1C3"
12

Next up: "C#CCOc1ccc2c3c(c4cc(OC)c(OC)cc4c2c1)C[C@H]1CCCN1C3"
38.9

Another compound to check: "COc1cc2c3c(c4ccc(OCC#N)cc4c2cc1OC)CN1CCC[C@@H]1C3"
38.7

Repeat with "COc1cc2c3c(c4ccc(OCC#N)cc4c2cc1OC)CN1CCC[C@H]1C3"
27.9

For "COc1cc2c3c(c4ccc(OC(C)=O)cc4c2cc1OC)CN1CCC[C@H]1C3" then?
19.3
